This section presents binders with their documented IC50, inhibition of IFN-γ release, PBMC, Hu IL-18 (recombinant) values.
# system: T1, Recombinant human IL-18 (human, UniProt Q14116 37-193)
# T1 sequence: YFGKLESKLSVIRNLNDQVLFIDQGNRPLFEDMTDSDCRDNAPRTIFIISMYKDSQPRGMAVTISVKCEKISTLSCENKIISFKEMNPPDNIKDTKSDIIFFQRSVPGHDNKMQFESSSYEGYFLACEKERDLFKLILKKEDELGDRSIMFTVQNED
# assay-comment: cell-based or functional assay
measure-name: IC50, inhibition of IFN-γ release, PBMC, Hu IL-18 (recombinant) (nM)

MOR09466 (antibody, human IgG1, lambda, L234A L235A, V domains shown, also called MOR9466) VH: EVQLVQSGAEVKKPGSSVKVSCKASGGTFNSYAISWVRQAPGQGLEWMGNIIPYSGFAYYAQKFQGRVTITADESTSTAYMELSSLRSEDTAVYYCARAAYHPLVFDNWGQGTLVTVSS VL: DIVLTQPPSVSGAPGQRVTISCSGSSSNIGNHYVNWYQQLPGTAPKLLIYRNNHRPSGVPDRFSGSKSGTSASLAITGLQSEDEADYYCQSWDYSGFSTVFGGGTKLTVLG
1.2
MOR10222 (antibody, human IgG1, lambda, L234A L235A, V domains shown) VH: EVQLVQSGAEVKKPGSSVKVSCKASGGTFNSYAISWVRQAPGQGLEWMGNIIPMTGQTYYAQKFQGRVTITADESTSTAYMELSSLRSEDTAVYYCARAAYHPLVFDNWGQGTLVTVSS VL: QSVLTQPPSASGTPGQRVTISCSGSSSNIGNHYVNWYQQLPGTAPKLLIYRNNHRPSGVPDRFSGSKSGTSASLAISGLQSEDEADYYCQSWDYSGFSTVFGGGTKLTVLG
2.3
